tested on: RSV A strain A2; test: In vitro antiviral assay against RSV A strain A2 in HEp-2 cells (ELISA, virus titer); assay type: cell-based, respiratory syncytial virus; conditions: selectivity index, CC50/IC50 ratio, RSV A2 / HEp-2
Lab note: anything with SI below 4 is marked class 1; values at 4 or higher are marked class 0.

Some entries whose results are on file:
[[record]]
compound = "CC1(C)[C@H]2CC[C@]1(C)[C@H](OC(=O)CCN1CCCCC1)C2 [Compound 6b]"
group = "class 0"

[[record]]
compound = "CC1(C)[C@H]2CC[C@]1(C)[C@H](OC(=O)CN1CCSCC1)C2 [Compound 12a]"
group = "class 1"

[[record]]
compound = "CC1CCN(CCC(=O)O[C@@H]2C[C@@H]3CC[C@@]2(C)C3(C)C)CC1 [Compound 7b]"
group = "class 0"

[[record]]
compound = "CC1(C)[C@H]2CC[C@]1(C)[C@H](OC(=O)CN1CCCCC1)C2 [Compound 6a]"
group = "class 1"

[[record]]
compound = "CC1(C)[C@H]2CC[C@]1(C)[C@H](OC(=O)CN1CCN(Cc3ccccc3)CC1)C2 [Compound 11a]"
group = "class 1"


Data request: Threshold test, SI < 4: CC1(C)[C@H]2CC[C@]1(C)[C@H](OC(=O)CCCN1CCC(Cc3ccccc3)CC1)C2 [Compound 13c]
Data returned: class 0

Data request: Threshold test, SI < 4: CC1(C)[C@H]2CC[C@]1(C)[C@H](OC(=O)CCCN1CCSCC1)C2 [Compound 12c]
Data returned: class 1

Data request: Threshold test, SI < 4: CC1(C)[C@H]2CC[C@]1(C)[C@H](OC(=O)CCN1CCCCCC1)C2 [Compound 8b]
Data returned: class 1

Data request: Threshold test, SI < 4: CC1(C)[C@H]2CC[C@]1(C)[C@H](OC(=O)CN1CCN(c3ccccc3)CC1)C2 [Compound 14a]
Data returned: class 0

----------
test system: RSV A strain A2; test: In vitro antiviral assay against RSV A strain A2 in HEp-2 cells (ELISA, virus titer); assay type: cell-based, respiratory syncytial virus; conditions: selectivity index, CC50/IC50 ratio, RSV A2 / HEp-2
Tag: true if measured SI is not below 5, false if it is.

[[record]]
molecule = "CCN1CCN(CC(=O)O[C@@H]2C[C@@H]3CC[C@@]2(C)C3(C)C)CC1 [Compound 10a]"
group = "false"

[[record]]
molecule = "CC1(C)[C@H]2CC[C@]1(C)[C@H](OC(=O)CCCN1CCCCC1)C2 [Compound 6c]"
group = "false"

[[record]]
molecule = "CN1CCN(CCC(=O)O[C@@H]2C[C@@H]3CC[C@@]2(C)C3(C)C)CC1 [Compound 9b]"
group = "true"


Next up:
Data request: Threshold query (SI >= 5) on CC1(C)[C@H]2CC[C@]1(C)[C@H](OC(=O)CCCN1CCOCC1)C2 [Compound 5c]
Data returned: true
